From: ChEMBL document CHEMBL3430912

Would you kindly list log10 IC50 for each of these molecules?
Target: Sterol 14-alpha demethylase (Trypanosoma cruzi (strain CL Brener))
Sequence (Q7Z1V1 whole entry): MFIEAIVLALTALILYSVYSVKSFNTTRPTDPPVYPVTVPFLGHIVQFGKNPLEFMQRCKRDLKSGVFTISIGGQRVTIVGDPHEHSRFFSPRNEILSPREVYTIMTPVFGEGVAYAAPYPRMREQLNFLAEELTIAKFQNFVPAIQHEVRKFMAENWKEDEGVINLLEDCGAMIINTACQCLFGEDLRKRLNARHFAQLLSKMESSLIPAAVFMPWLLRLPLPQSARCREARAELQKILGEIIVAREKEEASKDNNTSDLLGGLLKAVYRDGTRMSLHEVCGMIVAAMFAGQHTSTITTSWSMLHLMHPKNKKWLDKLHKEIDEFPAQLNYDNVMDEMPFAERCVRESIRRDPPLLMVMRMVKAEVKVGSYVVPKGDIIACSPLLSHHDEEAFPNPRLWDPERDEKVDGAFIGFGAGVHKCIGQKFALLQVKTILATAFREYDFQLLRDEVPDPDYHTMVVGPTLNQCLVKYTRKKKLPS
Test: GSK_TCAKS: pIC50 CYP51 from Trypanosoma cruzi.
Hello, just confirming the data are log10 of IC50 with units of µM.

Some solved entries appear below for comparison.
{"Molecule": "Oc1cc(CSc2ccc(Cl)cc2)nc(-c2ccccn2)n1", "Numeric Value": 1.80}
{"Molecule": "C[C@@H](Oc1cc(-n2cnc3cc(N)ccc32)sc1C(N)=O)c1ccccc1Cl", "Numeric Value": 0.50}

Would you be so kind as to report log10 IC50 for each listed record?
1. Cc1nc(-c2ccncc2)ncc1C(C)NC(=O)c1ccc(Cl)s1 (configuration not stated)
2. CS(=O)(=O)c1cccc(-c2cnc(N)c3c(-c4ccc(CO)cc4)csc23)c1

### Response
[-0.10, 0.50]

Would you be so kind as to report log10 IC50 for each listed record?
1. COc1ccc(C2CC(c3ccc(NS(C)(=O)=O)cc3)=NN2C(=O)c2cccs2)cc1OC (configuration not stated)
2. COc1cccc2sc(CN(C)C(=O)C3CNCCN3c3ccc(F)cc3)c(C)c12 (configuration not stated)
3. Cc1cccc(Nc2nc(-c3ccccn3)cs2)n1
4. CC(C)c1nn(-c2nc(N)nc(-c3ccccn3)n2)c(N)c1C1CCCCC1
5. Cc1cc2cncn2c(C2CCCCN2C(=O)c2cccs2)n1 (configuration not stated)
6. CNS(=O)(=O)c1ccccc1Nc1nc(Nc2ccnn2C)ncc1Cl
7. C=CCN(Cc1cccs1)C(=O)CSc1nnc(-c2ccc3c(c2)OCO3)o1
8. O=C(c1ccccc1)N1CCC(C(=O)N2CCC(Oc3ccccc3Cl)CC2)CC1

### Response
[1.10, -0.60, 1.30, 0.50, -1.00, 1.50, 0.90, 1.30]

====

Test system: Leishmania donovani
Test: GSK_TCAKS: pIC50 Leishmania donovani Imaging: Amastigotes/Macrophages. Assay plates (384-well) were prepared by adding 250nL of compound to each well. For single shot assay, the final compound concentration was 5 uM. […] Automated image analysis was performed with a script developed on Acapella High Content Imaging and Analysis Software (PerkinElmer). Output: Average number of amastigotes per macrophage cell were reported for each well.
Type: functional, organism-based, Homo sapiens
Conditions: THP-1
pIC50: −log10 of the molar value.
Would you please tag the item true (1) when its pIC50 is 5 or above, and false (0) when it is below?

{"Compound": "COc1ccccc1C=CCN1C[C@H]2CCC[C@@H](C1)C2(O)c1cccnc1 (stereo not given in full)", "Label Class": "false (0)"}
{"Compound": "COc1cc2c(cc1OC)[C@H]1[C@@H](C)c3ccc(OC)c(OC)c3CN1CC2", "Label Class": "false (0)"}
{"Compound": "O=C(Nc1ccc(C(F)(F)F)cc1)Nc1cccc([N+](=O)[O-])c1", "Label Class": "true (1)"}
{"Compound": "CN(CCOc1ccc(Cl)cc1)Cc1nc(N)nc(N(C)C)n1", "Label Class": "true (1)"}
{"Compound": "Cc1nn2c(NCCCO)c3c(nc2c1-c1cccs1)CCC3", "Label Class": "false (0)"}
{"Compound": "Cc1ccc(C)c(-n2nnnc2Sc2nc([N+](=O)[O-])nn2C)c1", "Label Class": "false (0)"}
{"Compound": "CC(=O)Nc1ccc(CN2CCC(N3CC(c4ccccc4)(c4ccccc4)OCC3=O)CC2)cc1", "Label Class": "false (0)"}
{"Compound": "CN(Cc1nc2ccc(C(=O)NCC3CCCCC3)cc2[nH]1)C1CCCc2cccnc21 (stereo not given)", "Label Class": "true (1)"}

### Prompt Quick check: does CC(C)COC(=O)Nc1ccc(N2CCC(CNS(=O)(=O)c3ccccc3)CC2)c(F)c1 have pIC50 greater than or equal to 5?
### Response true (1)

### Prompt Quick check: does Clc1ccc(C(CC2CCCCO2)Cn2cncn2)c(Cl)c1 (stereo not given) have pIC50 greater than or equal to 5?
### Response false (0)
